Record form. Attribute: viability. Fill in for each entry.
Experiment: P. berghei load reduction in hepatocytes – cell-based, HepG2, luciferase luminescence, HepG2 viability, primary screen (AID 624349);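 further: 100% = mean of DMSO negative control wells on the same plate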
Settings: P. berghei liver stage in HepG2, luciferase luminescence, concentration not given here; measured here: HepG2 viability without parasites
Answers are plain numbers, in %.

These solved cases illustrate the format of a correct answer.
NS(=O)(=O)c1cc2c(cc1Cl)NC(C1CC3C=CC1C3)NS2(=O)=O (stereo unspecified) = 133
CCCc1c(OCCCCc2nn[nH]n2)ccc(C(C)=O)c1O = 65.9
O=NN(CCCl)C(=O)NCCCl = 104

Could you report viability for every entry in the following list?
1. C#C[C@]1(O)CC[C@H]2[C@@H]3CCc4cc(O)ccc4[C@H]3CC[C@@]21C
2. O=NN(CCCl)C(=O)NC1CCCCC1
3. Oc1ccc(OCc2ccccc2)cc1

1. 66.2
2. 78
3. 102
